Test system: oat, wild (wild oat, Avena fatua)
assay.comment: Test A preemergence soil spray, visual injury rating 0-100
Type: in vivo
test.conditions: 16 g ai/ha, 0 to 100 scale, 10 days
Attribute: Oat, Wild plant response rating
Lab note: record just the number, no unit beside it.

Here's what some known entries look like.
compound	obs.value
COC(=O)C1=CCC(NC(=O)C2(C)CN(c3cc(Cl)c(F)c(Cl)c3)C(=O)O2)C1 (stereo not shown)	0
CC1(C(=O)NC2C=CC(C(=O)O)C2)CN(c2cc(F)cc(F)c2)C(=O)O1 (stereo not shown)	0
CC(C)OC(=O)C1=CCC(NC(=O)C2(C)CN(c3cc(F)cc(F)c3)C(=O)O2)C1 (stereo not shown)	0

Data request: What Oat, Wild plant response rating value was documented for this compound, CC1(C(=O)NC2CC=C(C(=O)OCC3CC3)C2)CN(c2cc(F)cc(Cl)c2)C(=O)O1 (stereo not shown) ?
Data returned: 0

* * *

Measured Oat, Wild plant response rating (0 to 100 scale) of individual entries
System: oat, wild (wild oat, Avena fatua)
assay.comment: Test A postemergence application, visual injury rating 0-100
Type: in vivo
test.conditions: Postemergence, 16 g ai/ha, greenhouse 10 days; 0 no effect, 100 complete control

molecule	obs.value
COC(=O)COC(=O)C1=CCC(NC(=O)C2(C)CN(c3cc(Cl)cc(Cl)c3)C(=O)O2)C1 (centres unmarked) [Compound 110]	20
CC1(C(=O)NC2CC(C(=O)O)C2)CN(c2cc(F)cc(F)c2)C(=O)O1 (centres unmarked) [Compound 119]	40
C=CC1(C(=O)NC2CC(C(=O)OC)C2)CN(c2cc(F)cc(F)c2)C(=O)O1 (centres unmarked) [Compound 172]	90
CC1(C(=O)NC2CC=C(C(=O)OCC(F)F)C2)CN(c2cc(F)cc(F)c2)C(=O)O1 (centres unmarked) [Compound 151]	0
COC(=O)C1C=CC(NC(=O)C2(C)CN(c3cc(Cl)c(F)c(Cl)c3)C(=O)O2)C1 (centres unmarked) [Compound 150]	60

Data request: Which Oat, Wild plant response rating (0 to 100 scale) value belongs to COC(=O)C1CC(NC(=O)C2(C)CN(c3cc(F)cc(Cl)c3)C(=O)O2)C1 (centres unmarked) [Compound 145] ?
Data returned: 90

Data request: What do you have for CC(C)OC(=O)C1=CCC(NC(=O)C2(C)CN(c3cc(F)cc(F)c3)C(=O)O2)C1 (centres unmarked) [Compound 99] ?
Data returned: 0

Data request: What about COC(=O)C1C=CC(NC(=O)C2(C)CN(c3cc(F)cc(F)c3)C(=O)O2)C1 (centres unmarked) [Compound 89] ?
Data returned: 90

* * *

Test system: ryegrass, Italian (italian ryegrass, Lolium multiflorum)
assay.comment: Test A postemergence application, visual injury rating 0-100
Assay type: in vivo
test.conditions: Postemergence, 500 g ai/ha, 10 days; 0 is no effect, 100 is complete control
observed.property: Ryegrass, Italian plant response rating (0 to 100 scale)
Please state the value as a number alone, without comment.

Data request: Record lookup: for ryegrass, Italian (italian ryegrass, Lolium multiflorum), what Ryegrass, Italian plant response rating (0 to 100 scale) belongs to COC(=O)C1C=CC(NC(=O)C2(C)CN(c3cc(Cl)cc(Cl)c3)C(=O)O2)C1 (centres unmarked) ?
Data returned: 90

Data request: What about CC(C)OC(=O)C1C=CC(NC(=O)C2(C)CN(c3cc(Cl)cc(Cl)c3)C(=O)O2)C1 (centres unmarked) ?
Data returned: 90

Data request: Item: COC(=O)[C@H]1C[C@@H](NC(=O)C2(C)CN(c3cc(F)cc(F)c3)C(=O)O2)[C@H]2C[C@H]21 (some centres unmarked)
Data returned: 100

Data request: Further, for CC1(C(=O)NC2C=CC(C(=O)OCCS(C)(=O)=O)C2)CN(c2cc(Cl)cc(Cl)c2)C(=O)O1 (centres unmarked) ?
Data returned: 70

Data request: Field entry: CCCOC(=O)C1C=CC(NC(=O)C2(C)CN(c3cc(F)cc(F)c3)C(=O)O2)C1 (centres unmarked)
Data returned: 90

* * *

Below is a list of entries, each paired with its recorded Ryegrass, Italian plant response rating value.
Tested on: ryegrass, Italian (italian ryegrass, Lolium multiflorum)
assay.comment: Test A preemergence soil spray, visual injury rating 0-100
Assay type: in vivo
test.conditions: 16 g ai/ha, 0 to 100 scale, 10 days
Could you respond with only the numeric value?

compound	observed.property	obs.value
CC1(C(=O)NC2CC(C(=O)O)C2)CN(c2cc(F)cc(Cl)c2)C(=O)O1 (racemic)	Ryegrass, Italian plant response rating	30

Data request: Item under review: COC(=O)C1CC(NC(=O)C2(C)CN(c3cc(F)cc(F)c3)C(=O)O2)C1 (centres unmarked) [Compound 130] . Reported Ryegrass, Italian plant response rating?
Data returned: 40

Data request: Now consider CSCCOC(=O)C1=CCC(NC(=O)C2(C)CN(c3cc(F)cc(Cl)c3)C(=O)O2)C1 (centres unmarked) .
Data returned: 0

Data request: // repeat for CC(C)COC(=O)C1=CCC(NC(=O)C2(C)CN(c3cc(F)cc(F)c3)C(=O)O2)C1 (centres unmarked) and report
Data returned: 0

Data request: And CC1(C(=O)NC2CC=C(C(=O)O)C2)CN(c2cc(F)cc(Cl)c2)C(=O)O1 (centres unmarked) [Compound 159] ?
Data returned: 30

Data request: Also COC(=O)C1CC(NC(=O)C2(C)CN(c3cc(F)cc(F)c3)C(=O)O2)C1 (centres unmarked) [Compound 118] ?
Data returned: 20

Data request: How about this compound: CC1(C(=O)NC2CC=C(C(=O)NS(C)(=O)=O)C2)CN(c2cc(F)cc(F)c2)C(=O)O1 (racemic)
Data returned: 0

Data request: Follow-up item: CC1(C(=O)NC2C=CC(C(=O)NO)C2)CN(c2cc(F)cc(F)c2)C(=O)O1 (centres unmarked)
Data returned: 30

* * *

Tested on: green foxtail (Setaria viridis)
assay.comment: Test A postemergence application, visual injury rating 0-100
Format: in vivo
test.conditions: Postemergence, 125 g ai/ha, 10 days; 0 is no effect, 100 is complete control
Text: […]
The following molecules are listed with their measured Foxtail, Green plant response rating (0 to 100 scale) values.

Solved entries (count: 2):
molecule	obs.value
CC1(C(=O)NC2CC=C(C(=O)OCC(F)(F)F)C2)CN(c2cc(F)cc(F)c2)C(=O)O1 (stereo not shown) [Compound 1]	90
COC(=O)C1CC(NC(=O)C2(C)CN(c3cc(F)cc(F)c3)C(=O)O2)CO1 (stereo not shown) [Compound 29]	80

Data request: Need Foxtail, Green plant response rating (0 to 100 scale), item CC(C)OC(=O)C1=CCC(NC(=O)C2(C)CN(c3cc(F)cc(F)c3)C(=O)O2)C1 (stereo not shown) [Compound 5]
Data returned: 90

Data request: Please do the same for CC1(C(=O)NC2C=CC(C(=O)OCCS(C)(=O)=O)C2)CN(c2cc(Cl)cc(Cl)c2)C(=O)O1 (stereo not shown) [Compound 46] as well.
Data returned: 80

* * *

Test system: ragweed (common ragweed, Ambrosia artemisiifolia)
assay.comment: Test A preemergence soil spray, visual injury rating 0-100
Assay type: in vivo
test.conditions: 125 g ai/ha, 10 days, 0 = no effect, 100 = complete control
Excerpt: […]
Ragweed plant response rating (0 to 100 scale) values by entry
When you answer, write just the number.

Would you please look over these solved cases?
compound	obs.value
CC1(C(=O)NC2CCC(C(=O)O)C2)CN(c2cc(F)cc(Cl)c2)C(=O)O1 (centres unmarked)	0
COC(=O)COC(=O)C1C=CC(NC(=O)C2(C)CN(c3cc(Cl)cc(Cl)c3)C(=O)O2)C1 (centres unmarked)	70
CCOC(=O)C1C=CC(NC(=O)C2(C)CN(c3cc(Cl)cc(Cl)c3)C(=O)O2)C1 (centres unmarked)	10
CC1(C(=O)NC2C=CC(C(=O)NS(=O)(=O)C3CC3)C2)CN(c2cc(Cl)cc(Cl)c2)C(=O)O1 (centres unmarked)	20
CSCCOC(=O)C1C=CC(NC(=O)C2(C)CN(c3cc(Cl)cc(Cl)c3)C(=O)O2)C1 (centres unmarked)	20

Data request: Requested read-out: Ragweed plant response rating (0 to 100 scale). Entry: CNC(=O)C1C=CC(NC(=O)C2(C)CN(c3cc(Cl)cc(Cl)c3)C(=O)O2)C1 (centres unmarked)
Data returned: 40

Data request: Param item: CC1(C(=O)NC2C=CC(C(=O)NS(=O)(=O)C(C)(C)C)C2)CN(c2cc(F)cc(F)c2)C(=O)O1 (centres unmarked)
Data returned: 0

Data request: Do the same for COC(=O)C1CC(NC(=O)C2(C)CN(c3cc(F)cc(F)c3)C(=O)O2)CO1 (centres unmarked) please
Data returned: 0

* * *

Test system: soybean (Glycine max)
assay.comment: Test A postemergence application, visual injury rating 0-100
Type: in vivo
test.conditions: Postemergence, 16 g ai/ha, greenhouse 10 days; 0 no effect, 100 complete control
# reported Soybean plant response rating (0 to 100 scale); entries follow
// no unit string in output, number only

Field: example entries. Status: answers known.
compound	target.under.test	obs.value
CCOC(=O)C1=CCC(NC(=O)C2(C)CN(c3cc(F)cc(F)c3)C(=O)O2)C1 (centres unmarked)	soybean (Glycine max)	0
CC(C)COC(=O)C1=CCC(NC(=O)C2(C)CN(c3cc(F)cc(F)c3)C(=O)O2)C1 (centres unmarked)	soybean (Glycine max)	0
COC(=O)C1C=CC(NC(=O)C2(C)CN(c3cc(C)cc(C)c3)C(=O)O2)C1 (centres unmarked)	soybean (Glycine max)	40
COC(=O)C1=CCC(NC(=O)C2(C)CN(c3cc(Cl)cc(Cl)c3)C(=O)O2)C1 (centres unmarked)	soybean (Glycine max)	60
CC(C)OC(=O)C1=CCC(NC(=O)C2(C)CN(c3cc(F)cc(F)c3)C(=O)O2)C1 (centres unmarked)	soybean (Glycine max)	0

Data request: Return reported Soybean plant response rating (0 to 100 scale); argument: C=CC1(C(=O)NC2CC=C(C(=O)OC)C2)CN(c2cc(F)cc(F)c2)C(=O)O1 (racemic)
Data returned: 60

Data request: Next entry: COC(=O)C1CC(NC(=O)C2(C(F)(F)F)CN(c3cc(F)cc(F)c3)C(=O)O2)C2CC12 (centres unmarked)
Data returned: 20

Data request: Continue with C=CC1(C(=O)NC2COC(C(=O)OC)C2)CN(c2cc(F)cc(F)c2)C(=O)O1 (centres unmarked)
Data returned: 70
